- Organism: Rattus norvegicus
- assay_protocol: Tested for inhibition of rat glial cell gap junction at the concentration of 20 uM
- Format: functional
Measured inhibition at 20 µM, listed per entry.
measurement_kind: inhibition at 20 µM (%)

INSERT INTO results (compound, reading) VALUES
  ('CCCCCCCC/C=C\CCCCCCCC(=O)NCCO [OLEOYLETHANOLAMIDE]', 0),
  ('CCCCCCCC/C=C\CCCCCCCC(=O)N(CCO)CCO', 0),
  ('CCCCC/C=C\C/C=C\C/C=C\C/C=C\CCCC(=O)NCCO [ANANDAMIDE]', 35),
  ('CCCCCCCC/C=C\CCCCCCCC(=O)N(CC)CC', 15),
  ('CCCCC/C=C\C/C=C\C/C=C\C/C=C\CCCC(=O)O', 0),
  ('CCCCCCCC/C=C\CCCCCCCC(=O)N(C)C', 70);

---

- Organism: Rattus norvegicus
- assay_protocol: Inhibition of rat glial cell gap junction at the concentration of 50 uM
- Format: functional
measurement_kind: inhibition at 50 µM (%)

INSERT INTO assay_data (compound, reading) VALUES
  ('CCCCC/C=C\C/C=C\C/C=C\C/C=C\CCCC(=O)N(C)C(C)C', 100),
  ('CCCCC/C=C\C/C=C\C/C=C\C/C=C\CCCC(=O)NCC', 100),
  ('CCCCCCCC/C=C\CCCCCCCC(=O)NCCCO', 100),
  ('C=CCNC(=O)CCC/C=C\C/C=C\C/C=C\C/C=C\CCCCC', 90),
  ('CCCCCCCC/C=C\CCCCCCCC(=O)NC1CC1', 100),
  ('CCCCC/C=C\C/C=C\C/C=C\C/C=C\CCCC(=O)NCCC', 100),
  ('CCCCCCCC/C=C\CCCCCCCC(=O)Nc1ccccc1 [OLEIC ACID ANILIDE]', 0),
  ('CCCCCCCC/C=C\CCCCCCCC(=O)N1CCCC1', 100),
  ('CCCCCCCC/C=C\CCCCCCCC(=O)NCC', 100),
  ('CCCCC/C=C\C/C=C\C/C=C\C/C=C\CCCC(=O)N(CCC)CCC', 10),
  ('CCCCC/C=C\C/C=C\C/C=C\C/C=C\CCCC(=O)NCCO [ANANDAMIDE]', 100),
  ('CCCCC/C=C\C/C=C\C/C=C\C/C=C\CCCC(=O)N1CCCC1', 100),
  ('CCCCCCCC/C=C\CCCCCCCC(=O)NC(C)C', 100),
  ('CCCCCCCC/C=C\CCCCCCCC(=O)N(CC)CC', 100),
  ('CCCCCCCC/C=C\CCCCCCCC(=O)N(C)C(C)C', 100),
  ('CCCCCCCC/C=C\CCCCCCCC(=O)NCCCC', 100),
  ('C=CCNC(=O)CCCCCCC/C=C\CCCCCCCC', 100),
  ('CCCCCCCC/C=C\CCCCCCCC(=O)N(CCO)CCO', 8),
  ('CCCCCCCC/C=C\CCCCCCCC(=O)NC', 100),
  ('CCCCCCCC/C=C\CCCCCCCC(=O)N(C)OC', 100),
  ('CCCCCCCC/C=C\CCCCCCCC(=O)NO', 100),
  ('CCCCCCCC/C=C\CCCCCCCC(=O)O [OLEIC ACID]', 0),
  ('CCCCCCCC/C=C\CCCCCCCC(=O)N(C)C', 100),
  ('CCCCC/C=C\C/C=C\C/C=C\C/C=C\CCCC(=O)N(C)OC', 100),
  ('CCCCC/C=C\C/C=C\C/C=C\C/C=C\CCCC(=O)NC', 100),
  ('CCCCC/C=C\C/C=C\C/C=C\C/C=C\CCCC(=O)N(CCO)CCO', 0),
  ('CCCCCCCC/C=C\CCCCCCCC(=O)NCCC', 90),
  ('CCCCC/C=C\C/C=C\C/C=C\C/C=C\CCCC(N)=O [ARACHIDONAMIDE]', 100),
  ('CCCCC/C=C\C/C=C\C/C=C\C/C=C\CCCC(=O)NCCCC', 10),
  ('CCCCCCCC/C=C\CCCCCCCC(=O)NCCCc1ccccc1', 0),
  ('CCCCC/C=C\C/C=C\C/C=C\C/C=C\CCCC(=O)O [ARACHIDONIC ACID]', 0);
